assay: Oral bioavailability in beagle dogs; type: in vivo; settings: dog, plasma, oral 20 mg/kg (10 mg/ml), mean n=3
readout.type: Cmax (ng/mL)

INSERT INTO results (mol_smiles, observed) VALUES
  ('[2H]C([2H])([2H])NCc1cc(-c2ccccc2F)n(S(=O)(=O)c2ccc(F)cc2)c1', 3350);

----------
assay: Pharmacokinetic profile in beagles, single oral dose; assay type: in vivo, beagle dogs; conditions: male, dog, plasma; beagle, oral single dose 0.1 mg/kg, mean n=3
readout.type: AUC(0-t) (ng·h/mL)

INSERT INTO measurements (mol_smiles, observed) VALUES
  ('[2H]C([2H])([2H])NCc1cc(-c2ccccc2F)n(S(=O)(=O)c2ccc(F)cc2)c1', 99.4);

----------
Target: proton pump (H+/K+-ATPase) (Sus scrofa (Pig), UniProt P19156)
Sequence (P19156 2-1034): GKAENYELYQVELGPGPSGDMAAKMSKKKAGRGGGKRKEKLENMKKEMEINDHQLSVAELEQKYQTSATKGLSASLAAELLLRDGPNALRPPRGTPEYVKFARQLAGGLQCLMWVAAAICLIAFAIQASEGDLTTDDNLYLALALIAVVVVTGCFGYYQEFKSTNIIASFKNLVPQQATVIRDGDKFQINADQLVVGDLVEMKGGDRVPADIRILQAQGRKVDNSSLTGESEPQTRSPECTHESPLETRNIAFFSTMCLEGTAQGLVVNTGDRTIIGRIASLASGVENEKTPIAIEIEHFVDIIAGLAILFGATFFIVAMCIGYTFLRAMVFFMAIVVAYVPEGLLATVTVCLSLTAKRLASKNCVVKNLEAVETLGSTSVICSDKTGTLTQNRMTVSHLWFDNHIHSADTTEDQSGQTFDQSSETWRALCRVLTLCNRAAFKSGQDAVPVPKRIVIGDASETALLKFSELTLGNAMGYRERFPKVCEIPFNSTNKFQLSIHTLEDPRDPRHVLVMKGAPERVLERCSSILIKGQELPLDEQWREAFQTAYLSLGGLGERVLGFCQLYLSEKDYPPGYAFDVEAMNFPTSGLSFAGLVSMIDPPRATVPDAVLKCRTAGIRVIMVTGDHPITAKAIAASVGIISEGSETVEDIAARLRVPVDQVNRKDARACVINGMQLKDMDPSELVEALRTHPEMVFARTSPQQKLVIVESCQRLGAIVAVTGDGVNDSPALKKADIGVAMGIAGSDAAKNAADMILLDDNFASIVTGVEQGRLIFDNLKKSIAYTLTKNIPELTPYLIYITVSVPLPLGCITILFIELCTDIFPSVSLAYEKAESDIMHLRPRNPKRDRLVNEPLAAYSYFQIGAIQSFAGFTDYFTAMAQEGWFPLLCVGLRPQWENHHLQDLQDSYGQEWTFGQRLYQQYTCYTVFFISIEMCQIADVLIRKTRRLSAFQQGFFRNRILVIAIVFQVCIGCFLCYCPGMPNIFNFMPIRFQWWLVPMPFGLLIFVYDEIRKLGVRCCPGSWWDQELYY
Sequence (P18434 whole entry partner): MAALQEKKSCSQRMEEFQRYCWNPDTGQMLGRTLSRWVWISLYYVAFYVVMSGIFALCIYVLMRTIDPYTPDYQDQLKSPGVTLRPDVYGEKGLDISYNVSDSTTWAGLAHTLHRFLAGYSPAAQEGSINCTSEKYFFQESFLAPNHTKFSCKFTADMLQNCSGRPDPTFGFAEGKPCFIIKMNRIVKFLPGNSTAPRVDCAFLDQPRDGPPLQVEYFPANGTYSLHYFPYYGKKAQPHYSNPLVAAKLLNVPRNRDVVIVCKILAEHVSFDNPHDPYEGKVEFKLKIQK
Test: Inhibitory activity on proton pump (H+/K+-ATPase) activity
Assay type: biochemical
Conditions: porcine gastric mucosal microsomes, 5 mM KCl, pH 6.4; read-out: Proton pump inhibitory activity (IC50, nM), class symbol
Experimental: The compounds indicated in the above examples were tested for their inhibitory activity on proton pump (H+/K+-ATPase) activity as follows by applying the method disclosed in the literature. According to the methods of Nobuyuki Takahashi and Yukinori Take [J Pharmacol Exp Ther. 2018 February; 364(2):275-286], the gastric mucosal microsome fraction was isolated from the porcine stomach. […] The isolated gastric mucosal microsome fraction was quantified by using the Bicinchoninic Acid (BCA) kit (Thermo). […]
readout.type: IC50

INSERT INTO assay_data (mol_smiles, observed) VALUES
  ('[2H]C([2H])([2H])NCc1cc(-c2ccccc2F)n(S(=O)(=O)c2ccc(Br)cc2)c1', '≤ 100 nM'),
  ('[2H]C([2H])([2H])NCc1cc(-c2ccccc2F)n(S(=O)(=O)c2ccc(OC)cc2)c1', '≤ 100 nM'),
  ('[2H]C([2H])([2H])NCc1cn(S(=O)(=O)c2ccc(OC)nc2)c(-c2ccc(F)cc2F)c1OC', '≤ 100 nM'),
  ('[2H]C([2H])([2H])NCc1cc(-c2ccc(F)cc2F)n(S(=O)(=O)c2ccc(C)cc2)c1', '≤ 100 nM'),
  ('[2H]C([2H])([2H])NCc1cc(-c2ccccc2F)n(S(=O)(=O)c2ccc(OC(F)(F)F)cc2)c1', '≤ 100 nM'),
  ('[2H]C([2H])([2H])NCc1cc(-c2cccc(F)c2)n(S(=O)(=O)c2ccc(Cl)cc2)c1', '≤ 100 nM'),
  ('[2H]C([2H])([2H])NCc1cc(-c2cccc(F)c2)n(S(=O)(=O)c2ccc(OC)cc2)c1', '≤ 100 nM');

----------
tested on: human gastric cancer cells (AGS Cells); experiment: MTS assay, inhibition of proliferation of human gastric cancer cells (AGS Cells); format: cell-based; details: 48 hours, read-out: Proliferation inhibitory effect of gastric cancer cells (IC50, μM), class symbol
readout.type: IC50

INSERT INTO results (compound, tgt, readout_type, observed) VALUES
  ('N.N.[Cl][Pt][Cl] [Control Drug 3 (Cisplatin), diamminedichloridoplatinum(II), reference compound]', 'human gastric cancer cells (AGS Cells)', 'IC50', '< 50 µM');

----------
Test: Pharmacokinetic profile in beagles, single oral dose
Format: in vivo, beagle dogs
Details: male, dog, plasma; beagle, oral single dose 0.3 mg/kg, mean n=3
Method: A total of 18 male beagle dogs (Marshall Beagle, Beijing) with an average weight of 9 to 11 kg were obtained, acclimatized, and distributed into a total of 6 groups, 3 dogs per test group. During the entire experiment, all beagle dogs were supplied with standardized solid food and water. The breeding room was kept under controlled and monitored conditions, while maintaining a temperature of 18° C. to 26° C., a humidity of 40% to 70%, and a light-dark cycle of 12 hours-12 hours. […]
readout.type: half-life

INSERT INTO measurements (mol_smiles, observed) VALUES
  ('[2H]C([2H])([2H])NCc1cc(-c2ccccc2F)n(S(=O)(=O)c2ccc(F)cc2)c1', '2.93 h');
